Listing of recorded IC50 by entry.
# Test system: Hela
# EXPERIMENT: Antiproliferative CCK8 assay, Hela
# Type: cell-based
# TEST_CONTEXT: Homo sapiens, 72 h incubation, average of three replicates, read-out: Relative IC50 against tumor cell line Hela
QUANTITY_NAME: IC50 (µM)

1) CC1(C)CCC[C@]2(C)[C@H]3Cc4c(O)c(O)cc(C=O)c4[C@]3(C)CC[C@@H]12 [Compound 5]; 13.2
2) CC1(C)CCC[C@]2(C)[C@H]3Cc4c(O)c(O)cc(C#N)c4[C@]3(C)CC[C@@H]12 [Compound 6]; 12.1

====

# TARGET: UniProt P42336
# EXPERIMENT: PI3K enzymatic activity assay (Kinase-Glo), PI3Kα
# Type: biochemical
# TEST_CONTEXT: average of three replicates; 25 μM ATP, 50 μM PIP2, 1 h, room temperature; read-out: IC50, inhibition against PI3Kα
# Protocol: We assumed that electronic effects might influence the inhibitory activity of compounds against PI3Kα. […] PI3K reactions were performed in 50 mM HEPES at pH 7.5 with 1 mM EGTA, 100 mM NaCl, 3 mM MgCl2, 2 mM DTT, and 0.03% CHAPS. All tested compounds were dissolved in 100% DMSO. PIP2 and ATP were used as substrates, and the final reaction volume was 10 μL. […] After incubating for 1 h at room temperature, the reactions were quenched by adding 10 μL of Kinase-Glo reagent. […]
pIC50: −log10 of the molar value.
QUANTITY_NAME: pIC50

1. CC1(C)CCC[C@]2(C)[C@H]3Cc4c(O)c(O)cc(C=O)c4[C@]3(C)CC[C@@H]12; 5.30
2. CC(=O)c1cc(O)c(O)c2c1[C@]1(C)CC[C@H]3C(C)(C)CCC[C@]3(C)[C@H]1C2; 5.06
3. CC1(C)CCC[C@]2(C)[C@H]3Cc4c(O)c(O)cc(C#N)c4[C@]3(C)CC[C@@H]12; 4.31
4. CC1(C)CCC[C@]2(C)[C@H]3Cc4c(O)c(O)cc(C(=O)O)c4[C@]3(C)CC[C@@H]12; 4.68
5. CCc1cc(O)c(O)c2c1[C@]1(C)CC[C@H]3C(C)(C)CCC[C@]3(C)[C@H]1C2; 4.08

====

# TARGET: PI3Kβ (Homo sapiens, UniProt P42338)
# Sequence (P42338 whole entry, species assumed): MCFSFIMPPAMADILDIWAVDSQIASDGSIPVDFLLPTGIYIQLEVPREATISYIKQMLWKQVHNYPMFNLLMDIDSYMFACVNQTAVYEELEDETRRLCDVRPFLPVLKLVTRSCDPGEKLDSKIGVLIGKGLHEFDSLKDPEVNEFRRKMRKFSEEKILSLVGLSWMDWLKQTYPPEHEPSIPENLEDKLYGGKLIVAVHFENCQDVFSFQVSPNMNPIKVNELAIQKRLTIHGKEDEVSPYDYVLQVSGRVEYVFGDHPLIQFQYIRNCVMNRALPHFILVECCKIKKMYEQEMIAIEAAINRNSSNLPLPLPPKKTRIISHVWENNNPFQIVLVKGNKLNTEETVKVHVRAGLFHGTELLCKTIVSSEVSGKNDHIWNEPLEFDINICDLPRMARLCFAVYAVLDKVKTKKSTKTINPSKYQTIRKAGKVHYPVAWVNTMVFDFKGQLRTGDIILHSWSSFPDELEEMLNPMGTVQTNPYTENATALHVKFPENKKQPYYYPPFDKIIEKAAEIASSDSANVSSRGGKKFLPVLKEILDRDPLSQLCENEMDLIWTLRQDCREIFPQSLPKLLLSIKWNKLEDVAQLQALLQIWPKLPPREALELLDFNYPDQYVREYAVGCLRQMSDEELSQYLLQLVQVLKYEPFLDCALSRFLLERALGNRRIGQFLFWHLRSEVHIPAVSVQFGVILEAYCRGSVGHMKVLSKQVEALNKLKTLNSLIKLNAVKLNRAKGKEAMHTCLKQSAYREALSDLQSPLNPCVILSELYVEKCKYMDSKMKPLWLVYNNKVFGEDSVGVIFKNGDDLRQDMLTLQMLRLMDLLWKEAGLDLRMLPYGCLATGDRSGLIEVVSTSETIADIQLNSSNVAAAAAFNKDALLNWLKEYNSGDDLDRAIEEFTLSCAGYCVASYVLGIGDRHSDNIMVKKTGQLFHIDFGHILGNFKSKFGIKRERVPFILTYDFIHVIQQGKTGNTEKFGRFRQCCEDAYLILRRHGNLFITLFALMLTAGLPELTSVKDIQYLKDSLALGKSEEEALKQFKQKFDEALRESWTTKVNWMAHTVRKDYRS
# Sequence (P27986 whole entry partner, species assumed): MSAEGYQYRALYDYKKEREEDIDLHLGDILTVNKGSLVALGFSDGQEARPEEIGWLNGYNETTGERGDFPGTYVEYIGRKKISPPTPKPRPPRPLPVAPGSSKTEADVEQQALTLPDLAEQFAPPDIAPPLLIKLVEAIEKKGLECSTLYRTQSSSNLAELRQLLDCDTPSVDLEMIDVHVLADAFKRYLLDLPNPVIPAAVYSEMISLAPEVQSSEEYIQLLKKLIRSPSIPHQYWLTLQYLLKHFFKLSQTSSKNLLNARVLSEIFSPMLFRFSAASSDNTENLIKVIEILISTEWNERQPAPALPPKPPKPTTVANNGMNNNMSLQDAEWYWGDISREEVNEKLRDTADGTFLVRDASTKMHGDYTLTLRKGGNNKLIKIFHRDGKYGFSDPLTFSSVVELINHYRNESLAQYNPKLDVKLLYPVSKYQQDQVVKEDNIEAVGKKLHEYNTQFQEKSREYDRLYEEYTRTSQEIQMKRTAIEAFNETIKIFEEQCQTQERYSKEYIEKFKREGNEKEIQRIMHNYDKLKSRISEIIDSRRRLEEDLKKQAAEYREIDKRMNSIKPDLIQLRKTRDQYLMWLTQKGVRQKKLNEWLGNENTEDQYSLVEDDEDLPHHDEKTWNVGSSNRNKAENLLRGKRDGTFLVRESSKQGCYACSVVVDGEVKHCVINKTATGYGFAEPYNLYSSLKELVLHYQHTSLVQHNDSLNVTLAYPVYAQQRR
QUANTITY_NAME: IC50

1. CC1(C)CCC[C@]2(C)[C@H]3Cc4c(O)c(O)cc(C=O)c4[C@]3(C)CC[C@@H]12; 8.9 µM

====

# TARGET: PI3Kα (Homo sapiens, UniProt P42336)
# Sequence (P42336 whole entry, species assumed, one chain of several): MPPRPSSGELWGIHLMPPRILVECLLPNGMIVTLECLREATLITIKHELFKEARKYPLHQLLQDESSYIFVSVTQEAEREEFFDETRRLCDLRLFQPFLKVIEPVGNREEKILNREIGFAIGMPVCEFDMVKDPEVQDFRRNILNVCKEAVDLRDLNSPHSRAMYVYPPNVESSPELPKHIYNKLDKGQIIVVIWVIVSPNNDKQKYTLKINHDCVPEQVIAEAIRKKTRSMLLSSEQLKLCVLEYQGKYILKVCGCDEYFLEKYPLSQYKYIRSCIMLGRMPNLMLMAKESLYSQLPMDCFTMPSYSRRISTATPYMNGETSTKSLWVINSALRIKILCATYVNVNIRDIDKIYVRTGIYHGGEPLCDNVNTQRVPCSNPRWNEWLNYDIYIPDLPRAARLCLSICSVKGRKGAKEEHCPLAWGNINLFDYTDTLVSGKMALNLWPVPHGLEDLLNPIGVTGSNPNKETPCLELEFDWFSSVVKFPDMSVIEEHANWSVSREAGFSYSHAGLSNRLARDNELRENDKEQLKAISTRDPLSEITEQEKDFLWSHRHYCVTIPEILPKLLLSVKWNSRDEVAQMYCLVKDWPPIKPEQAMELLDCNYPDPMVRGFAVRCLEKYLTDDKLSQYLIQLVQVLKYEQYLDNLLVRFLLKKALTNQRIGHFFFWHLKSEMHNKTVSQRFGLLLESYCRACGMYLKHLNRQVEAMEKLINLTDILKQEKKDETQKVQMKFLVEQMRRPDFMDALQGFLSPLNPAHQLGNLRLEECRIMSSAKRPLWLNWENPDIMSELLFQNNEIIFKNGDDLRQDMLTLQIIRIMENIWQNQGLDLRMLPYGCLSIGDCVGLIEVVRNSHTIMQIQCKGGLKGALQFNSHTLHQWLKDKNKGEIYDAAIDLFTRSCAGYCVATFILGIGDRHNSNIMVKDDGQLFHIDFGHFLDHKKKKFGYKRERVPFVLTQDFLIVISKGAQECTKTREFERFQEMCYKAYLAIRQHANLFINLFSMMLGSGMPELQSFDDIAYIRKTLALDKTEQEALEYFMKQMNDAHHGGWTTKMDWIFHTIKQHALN
# EXPERIMENT: PI3K enzymatic activity assay (Kinase-Glo), PI3Kα
# Type: biochemical
QUANTITY_NAME: IC50 (µM)

1) COC(=O)c1cc(O)c(O)c2c1[C@]1(C)CC[C@H]3C(C)(C)CCC[C@]3(C)[C@H]1C2; 38.2

====

# TARGET: UniProt:P48736
# Sequence (P48736 whole entry, species assumed): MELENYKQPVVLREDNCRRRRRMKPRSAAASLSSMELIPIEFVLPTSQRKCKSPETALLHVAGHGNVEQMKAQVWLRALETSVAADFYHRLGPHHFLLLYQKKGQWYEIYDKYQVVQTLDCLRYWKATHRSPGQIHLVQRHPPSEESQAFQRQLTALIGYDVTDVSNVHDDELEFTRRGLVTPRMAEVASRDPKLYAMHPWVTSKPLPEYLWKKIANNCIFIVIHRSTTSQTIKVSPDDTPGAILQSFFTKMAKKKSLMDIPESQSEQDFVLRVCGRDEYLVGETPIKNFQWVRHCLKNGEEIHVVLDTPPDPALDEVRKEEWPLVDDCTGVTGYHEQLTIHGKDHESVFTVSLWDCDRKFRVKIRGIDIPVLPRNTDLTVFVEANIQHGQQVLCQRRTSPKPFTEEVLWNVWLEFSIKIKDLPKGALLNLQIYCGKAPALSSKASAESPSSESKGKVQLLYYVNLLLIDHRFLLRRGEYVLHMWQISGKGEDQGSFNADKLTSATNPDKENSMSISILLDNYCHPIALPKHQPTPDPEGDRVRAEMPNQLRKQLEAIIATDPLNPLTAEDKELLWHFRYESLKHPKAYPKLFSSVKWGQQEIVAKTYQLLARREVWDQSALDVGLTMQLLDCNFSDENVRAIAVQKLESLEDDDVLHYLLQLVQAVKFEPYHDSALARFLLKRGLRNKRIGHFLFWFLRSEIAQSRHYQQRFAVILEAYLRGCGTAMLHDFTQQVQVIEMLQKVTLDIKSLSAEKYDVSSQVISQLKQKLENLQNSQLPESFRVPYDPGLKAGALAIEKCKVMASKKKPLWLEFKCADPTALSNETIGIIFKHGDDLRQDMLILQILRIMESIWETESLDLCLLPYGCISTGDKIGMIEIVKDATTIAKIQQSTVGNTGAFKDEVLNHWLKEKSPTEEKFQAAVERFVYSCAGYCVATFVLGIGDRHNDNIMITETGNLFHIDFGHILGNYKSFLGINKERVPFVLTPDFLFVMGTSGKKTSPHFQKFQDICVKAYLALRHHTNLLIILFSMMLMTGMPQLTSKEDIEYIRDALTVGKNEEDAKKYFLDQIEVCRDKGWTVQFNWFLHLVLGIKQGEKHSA
# EXPERIMENT: PI3K enzymatic activity assay, PI3Kγ
# Format: biochemical
QUANTITY_NAME: IC50

1. CC1(C)CCC[C@]2(C)[C@H]3Cc4c(O)c(O)cc(C=O)c4[C@]3(C)CC[C@@H]12; > 100 µM

====

# TARGET: PI3Kδ (Homo sapiens)
# Sequence (O00329 whole entry, species assumed, one chain of several): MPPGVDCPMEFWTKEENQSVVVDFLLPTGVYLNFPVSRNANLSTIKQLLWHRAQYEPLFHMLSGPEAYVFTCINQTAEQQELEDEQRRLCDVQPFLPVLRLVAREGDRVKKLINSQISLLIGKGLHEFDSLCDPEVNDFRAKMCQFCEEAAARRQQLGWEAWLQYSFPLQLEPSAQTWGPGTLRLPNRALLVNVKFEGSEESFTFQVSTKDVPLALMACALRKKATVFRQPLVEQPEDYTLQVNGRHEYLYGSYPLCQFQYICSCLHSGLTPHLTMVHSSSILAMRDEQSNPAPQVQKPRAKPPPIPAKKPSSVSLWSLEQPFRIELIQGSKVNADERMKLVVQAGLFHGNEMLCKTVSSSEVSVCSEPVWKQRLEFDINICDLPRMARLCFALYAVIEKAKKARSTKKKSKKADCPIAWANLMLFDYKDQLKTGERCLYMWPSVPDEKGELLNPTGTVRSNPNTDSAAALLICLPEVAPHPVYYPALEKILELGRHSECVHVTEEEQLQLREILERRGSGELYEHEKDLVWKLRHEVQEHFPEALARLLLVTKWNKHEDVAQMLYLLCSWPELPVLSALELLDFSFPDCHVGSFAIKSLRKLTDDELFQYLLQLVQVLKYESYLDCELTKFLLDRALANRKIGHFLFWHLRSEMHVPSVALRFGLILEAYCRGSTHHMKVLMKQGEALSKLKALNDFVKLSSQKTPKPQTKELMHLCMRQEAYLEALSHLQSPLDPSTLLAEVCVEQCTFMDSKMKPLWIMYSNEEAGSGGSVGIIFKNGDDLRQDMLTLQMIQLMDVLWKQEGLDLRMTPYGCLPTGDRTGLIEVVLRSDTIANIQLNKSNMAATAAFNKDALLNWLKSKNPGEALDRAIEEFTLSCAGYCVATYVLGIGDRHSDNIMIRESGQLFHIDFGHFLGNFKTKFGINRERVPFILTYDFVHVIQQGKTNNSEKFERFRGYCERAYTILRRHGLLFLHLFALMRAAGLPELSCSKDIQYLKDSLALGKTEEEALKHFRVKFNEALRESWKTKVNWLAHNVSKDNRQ
pIC50: −log10 of the molar value.
QUANTITY_NAME: pIC50

1. CC1(C)CCC[C@]2(C)[C@H]3Cc4c(O)c(O)cc(C=O)c4[C@]3(C)CC[C@@H]12 [Compound 5]; < 4.00
